# Target of assay: rVR1 (Rattus norvegicus)
# Construct: expressed in transfected cells
# Assay overview: Aequorin luminescence assay, rVR1 in CHO cells
# Assay type: cell-based
# Run conditions: inhibition of capsaicin response; capsaicin 1 μM
Endpoint name: IC50
The reply should consist of the numeric value with the unit placed after it.

Respond only with IC50 recorded for N.N.N.N.N.N.N.N.N.N.N.N.N.N.[Cl-].[Cl-].[Cl-].[Cl-].[Cl-].[Cl-].[O-2].[O-2].[Ru+3].[Ru+3].[Ru+4] [Rr, Ruthenium red]
18 nM

* * *

# Target of assay: hVR1 (Homo sapiens)
# Construct: expressed in transfected cells
# Assay overview: Aequorin luminescence assay, hVR1 in CHO cells
# Assay type: cell-based
Endpoint name: IC50

Given Oc1cc2c(cc1O)CN(C(=S)NCCc1ccc(Cl)cc1)CCC2 [Cz, Capsazepine] , respond with its IC50.
120 nM

* * *

# Target of assay: hVR1 (Homo sapiens)
# Construct: expressed in transfected cells
# Assay overview: Fluorometric Fluo-3 assay using the FLIPR, hVR1 in CHO cells
# Format: cell-based
Endpoint name: IC50 (nM)
Kindly provide the numeric value in nM only, without the unit symbol.

Please supply the value of reported IC50 for the item Oc1cc2c(cc1O)CN(C(=S)NCCc1ccc(Cl)cc1)CCC2 [Cz, Capsazepine]
130

* * *

# Target of assay: hVR1 (Homo sapiens, UniProt Q8NER1)
# Construct: expressed in transfected cells
# Sequence (Q8NER1 whole entry): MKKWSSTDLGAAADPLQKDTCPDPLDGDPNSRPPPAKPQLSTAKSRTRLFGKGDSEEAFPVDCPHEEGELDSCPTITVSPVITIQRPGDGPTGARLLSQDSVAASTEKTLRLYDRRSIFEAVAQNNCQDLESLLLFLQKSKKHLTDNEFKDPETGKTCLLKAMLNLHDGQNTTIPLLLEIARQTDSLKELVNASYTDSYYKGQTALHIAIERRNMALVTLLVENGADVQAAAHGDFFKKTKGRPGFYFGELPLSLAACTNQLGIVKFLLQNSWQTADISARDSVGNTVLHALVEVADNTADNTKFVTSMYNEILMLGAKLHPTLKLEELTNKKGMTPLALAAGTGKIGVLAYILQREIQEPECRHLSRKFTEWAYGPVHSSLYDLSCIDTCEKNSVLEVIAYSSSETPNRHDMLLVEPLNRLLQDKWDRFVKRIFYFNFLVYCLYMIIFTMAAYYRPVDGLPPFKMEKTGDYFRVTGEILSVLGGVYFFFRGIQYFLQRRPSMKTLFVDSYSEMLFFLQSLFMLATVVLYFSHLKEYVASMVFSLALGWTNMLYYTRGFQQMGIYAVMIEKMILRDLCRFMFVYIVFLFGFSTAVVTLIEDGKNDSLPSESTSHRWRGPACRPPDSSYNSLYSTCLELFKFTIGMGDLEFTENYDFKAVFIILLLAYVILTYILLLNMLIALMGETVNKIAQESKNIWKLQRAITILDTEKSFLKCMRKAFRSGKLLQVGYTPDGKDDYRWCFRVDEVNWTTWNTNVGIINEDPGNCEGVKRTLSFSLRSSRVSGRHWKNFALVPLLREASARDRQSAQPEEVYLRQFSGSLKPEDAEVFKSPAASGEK
# Assay overview: Aequorin luminescence assay, hVR1 in CHO cells
# Format: cell-based
# Run conditions: inhibition of capsaicin response; capsaicin 1 μM
# Description: All the plates for use in a day are set up at the same time. The first plate is used in the assay after 2.5 h incubation with coelenterazine h. Subsequent plates are used at about 10 min intervals. […] At the start of the assay, the medium containing coelenterazine h is removed and replaced with 100 μl of HBSS buffered to pH 7.4 with 10 mM HEPES containing test compounds where appropriate. […] Agonist is injected in a volume of 20 μl HBSS and the luminescence signal is collected for 20 sec.
Endpoint name: IC50 (nM)
Answer in nM, number only, no unit symbol.

Indicate its recorded IC50; the compound in question is N.N.N.N.N.N.N.N.N.N.N.N.N.N.[Cl-].[Cl-].[Cl-].[Cl-].[Cl-].[Cl-].[O-2].[O-2].[Ru+3].[Ru+3].[Ru+4]
220

* * *

# Target of assay: rVR1 (Rattus norvegicus, UniProt O35433)
# Construct: expressed in transfected cells
# Sequence (O35433 whole entry): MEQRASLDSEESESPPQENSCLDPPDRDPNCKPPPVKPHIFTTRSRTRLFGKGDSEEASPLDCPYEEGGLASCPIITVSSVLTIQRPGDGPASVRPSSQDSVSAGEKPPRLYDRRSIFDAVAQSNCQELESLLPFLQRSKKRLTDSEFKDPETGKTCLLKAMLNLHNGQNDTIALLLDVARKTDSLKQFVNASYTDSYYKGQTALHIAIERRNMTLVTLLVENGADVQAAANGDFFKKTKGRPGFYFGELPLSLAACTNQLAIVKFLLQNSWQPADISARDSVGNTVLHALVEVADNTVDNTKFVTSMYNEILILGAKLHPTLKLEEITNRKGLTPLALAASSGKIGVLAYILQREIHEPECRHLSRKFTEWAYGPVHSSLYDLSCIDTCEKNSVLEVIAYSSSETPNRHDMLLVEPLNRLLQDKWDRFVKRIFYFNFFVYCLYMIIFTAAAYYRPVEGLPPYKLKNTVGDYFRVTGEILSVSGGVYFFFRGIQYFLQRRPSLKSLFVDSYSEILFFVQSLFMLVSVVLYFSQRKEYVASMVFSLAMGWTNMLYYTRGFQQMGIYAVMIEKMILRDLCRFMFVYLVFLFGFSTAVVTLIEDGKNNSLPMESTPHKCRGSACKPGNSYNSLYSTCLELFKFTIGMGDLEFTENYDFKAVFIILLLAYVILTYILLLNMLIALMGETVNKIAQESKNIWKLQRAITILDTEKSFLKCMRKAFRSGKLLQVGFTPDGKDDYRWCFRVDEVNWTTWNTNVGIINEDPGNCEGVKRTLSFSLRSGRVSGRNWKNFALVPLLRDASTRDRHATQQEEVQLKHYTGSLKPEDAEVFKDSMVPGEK
# Assay overview: Aequorin luminescence assay, rVR1 in CHO cells
# Format: cell-based
Endpoint name: IC50
Write your answer as a measured quantity: the number, then the unit.

Recall and state the measured IC50 for Oc1cc2c(cc1O)CN(C(=S)NCCc1ccc(Cl)cc1)CCC2 [Cz, Capsazepine] .
320 nM

Sourced from patent US6406908B1
